# SYSTEM UNDER TEST: DNA polymerase beta (Rattus norvegicus) (UniProt P06766)
# METHOD: Inhibition of rat DNA polymerase beta at 50 ug/mL
PROPERTY MEASURED: inhibition

Dear colleague, I am looking for the recorded inhibition of the following compound: CC1(C)CC[C@]2(C(=O)O)CC[C@]3(C)C(=CC[C@@H]4[C@@]5(C)CC[C@H](O)C(C)(C)[C@@H]5CC[C@]43C)[C@@H]2C1
90%

Dear colleague, I am looking for the recorded inhibition of the following compound: C=C1[C@H]2C3=CC[C@@H]4[C@@]5(C)CC[C@H](O)C(C)(C)[C@@H]5CC[C@@]4(C)[C@]3(C)CC[C@@]2(C(=O)O)CC[C@H]1C
80%

Dear colleague, I am looking for the recorded inhibition of the following compound: C[C@H]1[C@H](C)CC[C@]2(C(=O)O)CC[C@]3(C)C(=CC[C@@H]4[C@@]5(C)CC[C@H](O)C(C)(C)[C@@H]5CC[C@]43C)[C@H]12
90%

Dear colleague, I am looking for the recorded inhibition of the following compound: C=C1CC[C@]2(C(=O)O)CC[C@]3(C)[C@H](CC[C@@H]4[C@@]5(C)CC[C@H](O)C(C)(C)[C@@H]5CC[C@]43C)C2=C1C
82%
